# Tested on: A375 (melanoma)
# ASSAY TEXT: MTT in vitro cytotoxic activity assay, A375
# Type: cell-based
# RECORDED CONDITIONS: Homo sapiens, A-375; cells exposed for 96 hours; 50% inhibition of cell proliferation; read-out: Cytotoxicity activity IC50, A375 (melanoma)
PROPERTY LABEL: IC50
# include the unit after the value

Clc1cccc(Nc2c3ccncc3nc3c2nn2cnccc32)c1 [Compound 1] tested on A375 (melanoma) gave IC50: 3.2 µM

###

# Test system: MCF7 (breast)
# ASSAY TEXT: MTT in vitro cytotoxic activity assay, MCF7
# Type: cell-based
# RECORDED CONDITIONS: Homo sapiens, cells exposed for 96 hours, 50% inhibition of cell proliferation, read-out: Cytotoxicity activity IC50, MCF7 (breast)
PROPERTY LABEL: IC50 (µM)
Answers are plain numbers, in µM.

Note to self: IC50 recorded for "Clc1cccc(Nc2c3ccncc3nc3c2nn2cnccc32)c1" was 6.5

###

# TARGET OR TEST SYSTEM: recombinant human CK2 (RRββ-holoenzyme) (Homo sapiens, UniProt P68400)
# Sequence (P68400 whole entry): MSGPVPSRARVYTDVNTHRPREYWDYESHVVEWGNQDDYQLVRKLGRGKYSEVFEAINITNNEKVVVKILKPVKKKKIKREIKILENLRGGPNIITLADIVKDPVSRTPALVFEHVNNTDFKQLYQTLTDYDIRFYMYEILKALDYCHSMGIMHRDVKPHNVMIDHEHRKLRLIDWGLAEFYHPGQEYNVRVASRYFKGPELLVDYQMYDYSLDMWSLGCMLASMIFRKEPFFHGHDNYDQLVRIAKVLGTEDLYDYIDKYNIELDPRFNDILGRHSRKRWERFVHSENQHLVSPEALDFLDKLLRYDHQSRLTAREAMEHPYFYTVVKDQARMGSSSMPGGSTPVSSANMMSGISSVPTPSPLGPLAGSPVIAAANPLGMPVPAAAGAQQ
# Sequence (P67870 whole entry partner): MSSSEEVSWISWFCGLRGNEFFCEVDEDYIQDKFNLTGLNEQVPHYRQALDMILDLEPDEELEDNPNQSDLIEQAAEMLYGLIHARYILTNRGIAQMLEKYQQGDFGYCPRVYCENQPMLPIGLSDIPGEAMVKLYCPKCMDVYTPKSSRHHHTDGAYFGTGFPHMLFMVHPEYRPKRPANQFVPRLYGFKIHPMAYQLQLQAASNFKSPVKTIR
# ASSAY TEXT: CK2 Kinase Assay (radiometric, [γ-33P] ATP)
# RECORDED CONDITIONS: final ATP concentration 15 μM; 10 min at 30° C.; read-out: protein kinase CK2 IC50
PROPERTY LABEL: IC50 (nM)
Give bare numbers, in nM.

Note to self: IC50 recorded for Clc1cccc(Nc2c3ccncc3nc3c2nn2cnccc32)c1 [Compound 1] was 92
